target: the molecule itself; assay: cross-linking; Ca2+-loaded proteins: 0.02% glutaric aldehyde, 16 h, 20 °C, protein 1 mg/mL, 20 mM Tricine-KOH pH 7.4, 50 mM KCl, 1 mM DTT, 1 mM CaCl2; SDS-PAGE, Coomassie, densitometry; self-association

| PROTEIN | Trimer 70–100 kDa, % |
| --- | --- |
| recombinant wild type human recoverin (natural protein, UniProt P35243 1-200, looked up, myristoyl group at the N terminus (degree of myristoylation exceeded 89%), recoverin, human, UniProt P35243; cDNA from Y79 retinoblastoma cells, amplified with primers from the start codon to the stop codon, subcloned into pET-15b(+) by NcoI and XhoI; also called rWT; rWT recoverin; source: E. coli pET15b rec/pBB131/BL21(DE3)RILLC+, purified (phenyl-Sepharose, Toyopearl SuperQ-650M)) MGNSKSGALSKEILEELQLNTKFSEEELCSWYQSFLKDCPTGRITQQQFQSIYAKFFPDTDPKAYAQHVFRSFDSNLDGTLDFKEYVIALHMTTAGKTNQKLEWAFSLYDVDGNGTISKNEVLEIVMAIFKMITPEDVKLLPDDENTPEKRAEKIWKYFGKNDDDKLTEKEFIEGTLANKEILRLIQFEPQKVKEKMKNA | 32% |
| human recoverin mutant F70A (natural protein, UniProt P35243 1-200, looked up, myristoylated (fraction of non-myristoylated forms did not exceed 16%), recoverin, human, UniProt P35243, N-terminal 'gray' cluster mutant; Parent construct as m1; source: E. coli, expressed and purified similarly to the rWT protein (phenyl-Sepharose, Toyopearl SuperQ-650M)) MGNSKSGALSKEILEELQLNTKFSEEELCSWYQSFLKDCPTGRITQQQFQSIYAKFFPDTDPKAYAQHVARSFDSNLDGTLDFKEYVIALHMTTAGKTNQKLEWAFSLYDVDGNGTISKNEVLEIVMAIFKMITPEDVKLLPDDENTPEKRAEKIWKYFGKNDDDKLTEKEFIEGTLANKEILRLIQFEPQKVKEKMKNA | 19.1% |

The origin of these recorded values is paper PMC6650976.
